Where these numbers come from: the supplement of paper PMC10065799

target: Grb2 SH2 (UniProt P62993); assay: SH2 binding enrichment of the phosphorylated peptide, bacterial display (enrichment ratio); higher = better substrate or ligand; peptides without Tyr show the background
Sequence (P62993 whole entry, looked up): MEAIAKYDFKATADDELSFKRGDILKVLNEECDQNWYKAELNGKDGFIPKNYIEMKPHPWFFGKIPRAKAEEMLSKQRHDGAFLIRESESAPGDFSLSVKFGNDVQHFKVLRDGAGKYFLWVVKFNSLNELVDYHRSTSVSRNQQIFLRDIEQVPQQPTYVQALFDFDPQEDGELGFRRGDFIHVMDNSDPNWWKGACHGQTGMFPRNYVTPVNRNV
SH2 binding enrichment below 0.9 gives no; SH2 binding enrichment at or above it gives yes.

Assess whether reported SH2 binding enrichment for NQDRTYFERVR [SPEN_Y632_S635R_YF] sits at 0.9 or higher.
no

Assess whether reported SH2 binding enrichment for RDHFGYRQSVT [CD55_Y245_YF] sits at 0.9 or higher.
no

Is it the case that SFLSFYTSHVQ [NEFL_Y443_P440L_YF] has SH2 binding enrichment reaching or exceeding 0.9?
yes

Is it the case that NTQRPYFKGGG [TYROBP_Y111_YF] has SH2 binding enrichment reaching or exceeding 0.9?
yes

SH2 binding enrichment >= 0.9 for IGMFSYVMLAS [GGCX_Y301] ?
no

Quick check: does CTLSVYRQLHN [LUZP1_Y1036] have SH2 binding enrichment greater than or equal to 0.9?
no

Is reported SH2 binding enrichment greater than or equal to 0.9 here: YKWAVYCIIGR [NUP93_Y391_R388W]
yes

Reported SH2 binding enrichment at or above 0.9? PKGTGCIKTEL [STAT1_Y701_Y701C]
no

Would you say EQKKFSNAMKK [SCN5A_Y1495_Y1495S_YF] shows SH2 binding enrichment at minimum 0.9?
no

hey, is SH2 binding enrichment for this one >= 0.9? EQKKFYNAMKN [SCN5A_Y1495_K1500N_YF]
no

Reported SH2 binding enrichment reaches at least 0.9 for FADIAYNYRQG [PAH_Y166_H170Q] ?
yes

State whether the measured SH2 binding enrichment reaches 0.9, counting equality as reaching it, for GRLGEYDIDEV [SMS_Y134_V132G]
no

Answer whether SH2 binding enrichment of TLGPFYPSRLF [CRYAA_Y18] is greater than or equal to 0.9.
yes

Test whether the sequence VGTKRYMALEV [ACVRL1_Y375_P378L] records SH2 binding enrichment of 0.9 or higher.
yes

Kindly determine if SH2 binding enrichment recorded for YQGGTYSKAST [FGG_Y380] is above or exactly 0.9.
no

Answer whether SH2 binding enrichment of PLFKIYVAELI [MRPL28_Y230] is greater than or equal to 0.9.
no

Is it the case that IDAICYFRMEN [NPHS2_Y194_YF] has SH2 binding enrichment reaching or exceeding 0.9?
no

Hello, I need to know if MKKKIYAMGGG [GAN_Y424] has measured SH2 binding enrichment not below 0.9. Thanks!
yes

I'd appreciate it if you could say whether DYSLKYPTDIP [APC_Y1183_A1184P] has SH2 binding enrichment at least equal to 0.9.
no

Is reported SH2 binding enrichment greater than or equal to 0.9 here: PADCRYFTFPQ [GAMT_Y222_A224T_YF]
yes

SH2 binding enrichment >= 0.9 for KGFCGYSFDDI [TMEM230_Y110_R108C_YF] ?
no

Has ALLTKYSHSSM [DSCC1_Y374] a recorded SH2 binding enrichment greater than or equal to 0.9?
no

* * *

target: MERTK (UniProt Q12866); assay: phosphorylation enrichment, bacterial display (enrichment ratio); higher = better substrate or ligand; peptides without Tyr show the background
Sequence (Q12866 whole entry, looked up): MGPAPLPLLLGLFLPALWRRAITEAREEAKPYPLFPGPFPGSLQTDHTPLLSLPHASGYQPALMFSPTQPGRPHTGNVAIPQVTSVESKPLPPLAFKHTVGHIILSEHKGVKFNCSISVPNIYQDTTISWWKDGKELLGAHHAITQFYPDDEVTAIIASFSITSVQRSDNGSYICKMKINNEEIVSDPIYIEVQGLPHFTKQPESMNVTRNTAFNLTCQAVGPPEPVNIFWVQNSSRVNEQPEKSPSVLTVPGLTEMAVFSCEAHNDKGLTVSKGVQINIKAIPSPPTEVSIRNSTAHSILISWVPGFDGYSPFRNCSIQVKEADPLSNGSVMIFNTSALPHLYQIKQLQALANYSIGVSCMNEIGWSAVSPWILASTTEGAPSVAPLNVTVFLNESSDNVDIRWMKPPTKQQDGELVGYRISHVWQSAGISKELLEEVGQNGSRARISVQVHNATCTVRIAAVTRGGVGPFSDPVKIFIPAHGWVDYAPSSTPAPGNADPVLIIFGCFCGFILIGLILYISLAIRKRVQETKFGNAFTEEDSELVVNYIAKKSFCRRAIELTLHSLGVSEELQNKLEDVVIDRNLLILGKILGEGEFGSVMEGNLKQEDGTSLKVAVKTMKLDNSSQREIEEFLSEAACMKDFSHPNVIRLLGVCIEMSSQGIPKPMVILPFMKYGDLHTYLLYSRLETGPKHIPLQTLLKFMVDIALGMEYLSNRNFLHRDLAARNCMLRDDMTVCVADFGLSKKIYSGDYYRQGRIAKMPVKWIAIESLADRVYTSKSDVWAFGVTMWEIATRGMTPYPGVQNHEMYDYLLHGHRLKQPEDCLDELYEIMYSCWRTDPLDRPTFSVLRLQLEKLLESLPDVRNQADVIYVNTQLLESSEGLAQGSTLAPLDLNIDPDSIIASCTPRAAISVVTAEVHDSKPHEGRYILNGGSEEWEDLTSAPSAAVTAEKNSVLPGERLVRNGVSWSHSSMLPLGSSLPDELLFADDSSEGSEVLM
Measured attribute: phosphorylation enrichment
Give a plain numeric answer without units written out.

Data point: RIVEIYSRRLR [GCH1_Y175_Q180R] ; phosphorylation enrichment = 0.773

phosphorylation enrichment for DPTFGYEDFTR [SESN2_Y323] is 0.545

The sequence listed as PHQTIYGALMI [FGF23_Y70_S71G] shows phosphorylation enrichment equal to 0.796

Given item LLLLFCVVRFC [MPZ_Y177_Y177C_YF] , the value recorded as its phosphorylation enrichment is 0.718

Consider HHTDEYEYDEL [TGM1_Y134] . Its measured phosphorylation enrichment is 0.687

// field: phosphorylation enrichment; key: LGRTRYQHVTG [MIPEP_Y510] ; value = 0.499

Briefly, phosphorylation enrichment measured for NFDRVYIYHLR [MYOF_Y1137] : 0.528
